Molecular target: T1, human EphA4 (binding to human Ephrin A5) (Homo sapiens, UniProt P54764)
T1 construct: made in house; not restated for the human SEAP-His protein
T1 sequence (P54764 20-547): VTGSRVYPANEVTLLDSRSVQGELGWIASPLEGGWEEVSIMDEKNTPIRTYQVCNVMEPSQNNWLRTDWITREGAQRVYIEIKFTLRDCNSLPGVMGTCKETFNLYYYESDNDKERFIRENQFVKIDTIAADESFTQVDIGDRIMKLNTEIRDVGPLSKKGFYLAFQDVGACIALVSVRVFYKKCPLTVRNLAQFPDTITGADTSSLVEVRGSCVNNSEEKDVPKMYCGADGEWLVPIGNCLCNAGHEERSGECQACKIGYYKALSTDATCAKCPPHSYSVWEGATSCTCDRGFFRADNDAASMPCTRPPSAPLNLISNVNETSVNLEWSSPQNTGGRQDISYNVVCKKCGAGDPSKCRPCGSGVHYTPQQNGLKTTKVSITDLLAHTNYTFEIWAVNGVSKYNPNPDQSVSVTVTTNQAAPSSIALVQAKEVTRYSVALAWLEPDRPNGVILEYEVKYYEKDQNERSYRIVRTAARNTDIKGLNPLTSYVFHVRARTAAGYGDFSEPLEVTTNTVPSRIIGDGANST
Test: Human EphA4-human ligand binding inhibition ELISA of humanized antibodies (biotinylated Ephrin A5-Fc)
Conditions: biotinylated human Ephrin A5-Fc 0.7 nM
Protocol: Each anti-EphA4 monoclonal humanized antibody obtained in Example 16 was evaluated for its inhibitory activity against the binding between human EphA4 and its human ligand according to the following steps. Each well of a 96-well plate (Nunc) was coated with an anti-alkaline phosphatase antibody (Thermo Fisher Scientific). […] The absorbance at 450 nm was read using a microplate reader (PerkinElmer).
observable: IC50 (nM)
The answer is to be given in nM; state only the numeric part.

Worked examples, 3 molecules total:
molecule	unitAbbreviation	testResult
86 (antibody, V domains shown, constant regions without entry; synthetic humanized antibody light chain variable region sequence; synthetic humanized antibody heavy chain variable region sequence) VL: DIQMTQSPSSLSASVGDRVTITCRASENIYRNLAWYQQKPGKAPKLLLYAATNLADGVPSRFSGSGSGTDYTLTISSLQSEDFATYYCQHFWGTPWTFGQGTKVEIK VH: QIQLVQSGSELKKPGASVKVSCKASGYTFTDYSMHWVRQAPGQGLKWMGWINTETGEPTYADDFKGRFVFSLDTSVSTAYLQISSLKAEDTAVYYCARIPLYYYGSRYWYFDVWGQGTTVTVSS	nM	4
160 (antibody, V domains shown, synthetic humanized antibody heavy chain variable region sequence; synthetic humanized antibody light chain variable region sequence) VH: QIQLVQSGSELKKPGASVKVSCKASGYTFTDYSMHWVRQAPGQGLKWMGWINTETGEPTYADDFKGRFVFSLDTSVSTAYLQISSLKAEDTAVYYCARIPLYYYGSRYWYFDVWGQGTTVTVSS VL: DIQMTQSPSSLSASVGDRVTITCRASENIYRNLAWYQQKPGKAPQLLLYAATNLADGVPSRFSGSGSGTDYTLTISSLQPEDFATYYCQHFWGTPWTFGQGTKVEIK	nM	2.2
132 (antibody, V domains shown, synthetic humanized antibody heavy chain variable region sequence; synthetic humanized antibody light chain variable region sequence) VH: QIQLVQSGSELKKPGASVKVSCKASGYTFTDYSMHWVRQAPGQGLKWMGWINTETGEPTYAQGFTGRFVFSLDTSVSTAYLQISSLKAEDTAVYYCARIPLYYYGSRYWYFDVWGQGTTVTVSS VL: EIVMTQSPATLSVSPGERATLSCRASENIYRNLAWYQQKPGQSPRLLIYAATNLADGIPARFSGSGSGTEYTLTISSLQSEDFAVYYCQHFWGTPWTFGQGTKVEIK	nM	3.1

Next up:
Incoming: Any idea what IC50 was measured for 138 (antibody, V domains shown, synthetic humanized antibody heavy chain variable region sequence; synthetic humanized antibody light chain variable region sequence) VH: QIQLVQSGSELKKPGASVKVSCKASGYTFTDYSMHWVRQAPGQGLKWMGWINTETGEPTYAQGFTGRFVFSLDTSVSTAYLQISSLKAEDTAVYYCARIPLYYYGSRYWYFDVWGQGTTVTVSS VL: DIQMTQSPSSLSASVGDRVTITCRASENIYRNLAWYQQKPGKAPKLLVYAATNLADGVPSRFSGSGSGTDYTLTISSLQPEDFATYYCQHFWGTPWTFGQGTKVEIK ?
Outgoing: 2.9
